# measurement.protocol: chemical genetic growth profiling, strain panel (AID 1159580);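 note: tested at 20 µM; growth read once vehicle control cultures reached saturation at 30 °C; 1 = growth at the plate median or of vehicle wells; lower values mean less growth of the strain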
# details: S. cerevisiae deletion strains, growth OD, locus YDL192W, strain arf1, hits give low values
Screen size: about 5,500 compounds; about 2,000 (36%) were called active. Inconclusive results (about 18%) are left out. This is one part of the list.
Would you kindly list normalized growth for each of these compounds?
Respond numerically, and do not add a unit to the figure.

Exercise: Answer with the recorded normalized growth for the compound listed here: COc1ccc(CCN2CCC(Nc3nc4ccccc4n3Cc3ccc(F)cc3)CC2)cc1
Solution: 0.986

Exercise: Answer with the recorded normalized growth for the compound listed here: Cc1c(Cl)cccc1Nc1ccccc1C(=O)O
Solution: 0.796

Exercise: Answer with the recorded normalized growth for the compound listed here: CC(=O)Oc1c(C)cccc1C(=O)O
Solution: 1.02

Exercise: Answer with the recorded normalized growth for the compound listed here: C=C1C(C)C2C(Cc3ccccc3)NC(=O)C23OC(=O)/C=C/C(=O)CCCC(C)C/C=C/C3C1O (stereo not given)
Solution: 0.994

Exercise: Answer with the recorded normalized growth for the compound listed here: CC(C)NCC(O)c1cc(O)cc(O)c1 (stereo not given)
Solution: 0.984

Exercise: Answer with the recorded normalized growth for the compound listed here: COc1ccc2c(c1O)OCC1c3cc4c(cc3OC21)OCO4 (stereo not given)
Solution: 0.986

Exercise: Answer with the recorded normalized growth for the compound listed here: Cc1cc(NC(=O)C2=C(O)c3ccccc3S(=O)(=O)N2C)no1
Solution: 0.952

Exercise: Answer with the recorded normalized growth for the compound listed here: CC(C)C(C)/C=C/C(C)C1CCC2C3=CC=C4CC(O)CCC4(C)C3CCC21C (stereo not given)
Solution: 0.959

Exercise: Answer with the recorded normalized growth for the compound listed here: CC[N+](CC)(CC)CCOc1cccc(OCC[N+](CC)(CC)CC)c1OCC[N+](CC)(CC)CC
Solution: 1.01

Exercise: Answer with the recorded normalized growth for the compound listed here: COc1cc2occ(-c3ccccc3)c(=O)c2c(OC)c1C
Solution: 0.903

Exercise: Answer with the recorded normalized growth for the compound listed here: COc1ccc([C@H]2Oc3cc(OC)cc(OC)c3C[C@H]2O)cc1
Solution: 1

Exercise: Answer with the recorded normalized growth for the compound listed here: CC1(C)OC(=O)C=CC2(C)C1CC(O)C1(C)C2CCC2(C)C(c3ccoc3)OC(=O)C3OC321 (stereo not given)
Solution: 1.01

Exercise: Answer with the recorded normalized growth for the compound listed here: CCCNC1CCc2nc(N)sc2C1 (stereo not given)
Solution: 1

Exercise: Answer with the recorded normalized growth for the compound listed here: CC1C[C@H]2CC(=O)[C@H]3CCCN4CCC[C@H]2[C@]34C1 (stereo not given in full)
Solution: 1.02

Exercise: Answer with the recorded normalized growth for the compound listed here: CC[C@H](C)C(=O)O[C@H]1CCC=C2C=C[C@H](C)C(CCC3C[C@@H](O)CC(=O)O3)[C@H]21 (stereo not given in full)
Solution: 0.972

Exercise: Answer with the recorded normalized growth for the compound listed here: CC[C@H](C)C(=O)O[C@H]1C[C@@H](C)C=C2C=C[C@H](C)[C@H](CC[C@@H]3C[C@@H](O)CC(=O)O3)[C@H]21
Solution: 0.983

Exercise: Answer with the recorded normalized growth for the compound listed here: CC(C)C(=O)Nc1ccc([N+](=O)[O-])c(C(F)(F)F)c1
Solution: 0.977

Exercise: Answer with the recorded normalized growth for the compound listed here: C=C1C(=O)OC2CC1C(OC(C)=O)C/C(C)=C/CC/C(C)=C/CC[C@]2(C)O (stereo not given in full)
Solution: 1

Exercise: Answer with the recorded normalized growth for the compound listed here: Oc1ccc(Cl)cc1
Solution: 0.977

Exercise: Answer with the recorded normalized growth for the compound listed here: O=c1[nH]oc2c1CCNC2
Solution: 0.976

Exercise: Answer with the recorded normalized growth for the compound listed here: OC(Cn1cncn1)(Cn1cncn1)c1ccc(F)cc1F
Solution: 0.998

Exercise: Answer with the recorded normalized growth for the compound listed here: COc1ccc2c(c1)CCC(c1ccccc1)=C2c1ccc(OCCN2CCCC2)cc1
Solution: 0.095

Exercise: Answer with the recorded normalized growth for the compound listed here: CO[C@@]1(NC(=O)CSCC#N)C(=O)N2C(C(=O)O)=C(CSc3nnnn3C)CSC21 (stereo not given in full)
Solution: 1.04

Exercise: Answer with the recorded normalized growth for the compound listed here: CCC(C)c1cnc(CC(C)C)c(=O)n1O (stereo not given)
Solution: 0.933

Exercise: Answer with the recorded normalized growth for the compound listed here: Nc1ccc(N=Nc2ccccc2)c(N)n1
Solution: 0.901

Exercise: Answer with the recorded normalized growth for the compound listed here: COc1cc([C@@H]2c3cc4c(c(O)c3C[C@H]3COC(=O)[C@@H]32)OCO4)cc(OC)c1OC
Solution: 0.972

Exercise: Answer with the recorded normalized growth for the compound listed here: Cc1cccc(C(=O)O)c1O
Solution: 1.01

Exercise: Answer with the recorded normalized growth for the compound listed here: CC(=O)OC1CCC2(C)C(=CC=C3C2CCC2(C)C3CCC2C(C)/C=C/C(C)C(C)C)C1(C)C (stereo not given)
Solution: 1

Exercise: Answer with the recorded normalized growth for the compound listed here: O=C(C1CCCCC1)N1CC(=O)N2CCc3ccccc3C2C1 (stereo not given)
Solution: 1.01

Exercise: Answer with the recorded normalized growth for the compound listed here: CC(C)(C)CC(C)(C)c1ccc(O)c(Cc2ccc(Cl)cc2Cl)c1
Solution: 1.01

Exercise: Answer with the recorded normalized growth for the compound listed here: COc1ccc2c(c1)O[C@H]1c3ccc(OC)cc3OC[C@@H]21
Solution: 0.897

Exercise: Answer with the recorded normalized growth for the compound listed here: CCNC(=O)CC[C@H](N)C(=O)O
Solution: 1

Exercise: Answer with the recorded normalized growth for the compound listed here: O=C(O)c1ccccc1-c1c2cc(Br)c(=O)cc-2oc2[c]([Hg])c(O)c(Br)cc12
Solution: 0.0635

Exercise: Answer with the recorded normalized growth for the compound listed here: CC1=CC2C(CC1=O)C(C)=CCC2C(C)C (stereo not given)
Solution: 0.769

Exercise: Answer with the recorded normalized growth for the compound listed here: CC(C)NC[C@H](O)COc1cccc2ccccc12
Solution: 1.02

Exercise: Answer with the recorded normalized growth for the compound listed here: OCc1ccccc1O
Solution: 0.991

Exercise: Answer with the recorded normalized growth for the compound listed here: CC(C)[C@@H]1CC[C@@H](C)C[C@H]1O
Solution: 1.02

Exercise: Answer with the recorded normalized growth for the compound listed here: O=C(O)CN1C(=O)c2cccc3cccc(c23)C1=O
Solution: 0.991

Exercise: Answer with the recorded normalized growth for the compound listed here: O=C(O)c1cc2cc(Cc3cccnc3)ccc2o1
Solution: 1

Exercise: Answer with the recorded normalized growth for the compound listed here: C[N+]1(C)C2CC(OC(=O)[C@@H](CO)c3ccccc3)CC1C1OC12 (stereo not given in full)
Solution: 1.03

Exercise: Answer with the recorded normalized growth for the compound listed here: COC(=O)[C@@H]1OC(=O)[C@H]2O[C@@]23[C@@]1(C)CCC1[C@@]2(C)CCC(=O)C(C)(C)C2C[C@@H](OC(C)=O)[C@]13C (stereo not given in full)
Solution: 0.988

Exercise: Answer with the recorded normalized growth for the compound listed here: O=C1NC(=O)C(=O)C(=O)N1
Solution: 0.998

Exercise: Answer with the recorded normalized growth for the compound listed here: C=C1C(=O)O[C@@H]2C3O[C@]3(C)CC/C=C(\C)CC[C@@H]12 (stereo not given in full)
Solution: 0.729

Exercise: Answer with the recorded normalized growth for the compound listed here: Cc1ccc(C)c(OCCCC(C)(C)C(=O)O)c1
Solution: 0.931

Exercise: Answer with the recorded normalized growth for the compound listed here: CC1(C)NC(=O)N(c2ccc([N+](=O)[O-])c(C(F)(F)F)c2)C1=O
Solution: 0.983

These entries and their values trace back to PubChem BioAssay AID1159580.
